target: human CD33 Q204A (human, UniProt P20138 18-364); experiment: alanine scan, flow cytometry, HEK293-T;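 note: antibody binding to each alanine-substituted CD33 mutant expressed transiently in HEK293-T, read as fluorescence minus background, mean of duplicates, relative to wild-type CD33 set as 100%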
Sequence (P20138 18-364 Q204A limits assumed): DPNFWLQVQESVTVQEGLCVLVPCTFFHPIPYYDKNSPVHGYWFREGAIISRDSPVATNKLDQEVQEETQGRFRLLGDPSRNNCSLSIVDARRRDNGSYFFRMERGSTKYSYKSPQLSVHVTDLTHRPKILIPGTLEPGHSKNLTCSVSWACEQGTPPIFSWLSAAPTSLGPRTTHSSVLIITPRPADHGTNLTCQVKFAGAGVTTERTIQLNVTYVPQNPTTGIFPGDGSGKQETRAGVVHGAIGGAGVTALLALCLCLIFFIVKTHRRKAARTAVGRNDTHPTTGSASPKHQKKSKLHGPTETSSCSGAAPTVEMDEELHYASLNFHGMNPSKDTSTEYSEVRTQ
METRIC: Mean % WT Binding (%)
Give the quantity in %, number only.

Some entries whose results are on file:
>>> recorded_measurement("Refmab #4 (antibody, V domains shown, In the alanine scan antibodies were used as IgG or Fab) VH: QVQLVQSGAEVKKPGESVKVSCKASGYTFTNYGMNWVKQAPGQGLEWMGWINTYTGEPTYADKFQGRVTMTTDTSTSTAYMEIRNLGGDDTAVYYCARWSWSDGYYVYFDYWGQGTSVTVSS VL: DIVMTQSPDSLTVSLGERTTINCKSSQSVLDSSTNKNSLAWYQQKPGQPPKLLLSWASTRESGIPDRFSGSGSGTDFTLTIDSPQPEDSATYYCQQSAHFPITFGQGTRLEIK")
99.8
>>> recorded_measurement("Refmab #2 (antibody, V domains shown, In the alanine scan antibodies were used as IgG or Fab) VH: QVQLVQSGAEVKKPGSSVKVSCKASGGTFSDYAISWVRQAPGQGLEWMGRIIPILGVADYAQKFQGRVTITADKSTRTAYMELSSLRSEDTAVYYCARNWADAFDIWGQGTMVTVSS VL: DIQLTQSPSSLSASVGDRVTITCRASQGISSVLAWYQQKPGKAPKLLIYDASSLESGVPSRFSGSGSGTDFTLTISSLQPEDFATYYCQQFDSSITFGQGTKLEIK")
112
>>> recorded_measurement("Refmab #3 (antibody, V domains shown, In the alanine scan antibodies were used as IgG or Fab) VH: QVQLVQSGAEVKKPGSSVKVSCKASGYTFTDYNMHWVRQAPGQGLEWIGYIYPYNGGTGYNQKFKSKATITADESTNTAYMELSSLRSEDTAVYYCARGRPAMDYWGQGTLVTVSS VL: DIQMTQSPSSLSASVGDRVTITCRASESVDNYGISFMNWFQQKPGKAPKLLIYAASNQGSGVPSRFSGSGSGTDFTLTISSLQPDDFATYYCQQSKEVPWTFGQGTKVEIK")
126

Attention now turns to another entry.
// Refmab #1 (antibody, V domains shown, In the alanine scan antibodies were used as IgG or Fab; also called hP67.6) VH: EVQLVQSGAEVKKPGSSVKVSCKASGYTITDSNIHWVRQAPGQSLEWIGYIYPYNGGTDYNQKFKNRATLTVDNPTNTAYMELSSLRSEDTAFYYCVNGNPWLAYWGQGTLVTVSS VL: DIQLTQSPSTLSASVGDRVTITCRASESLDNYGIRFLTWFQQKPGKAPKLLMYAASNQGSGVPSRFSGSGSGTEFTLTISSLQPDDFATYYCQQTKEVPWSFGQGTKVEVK : Mean % WT Binding value = 93.7

Values from patent US20260242735A1
